System: CCRIS mutagenicity, Ames/micronucleus/aberration tests
Assay: CCRIS mutagenicity studies
Settings: Test System: AMES SALMONELLA TYPHIMURIUM; Strain/Indicator: TA1535; Metabolic Activation: HAMSTER, LIVER, S-9, AROCLOR 1254 (10%); Method: PREINCUBATION
Active and inactive are the calls of the source. The rule behind the calls is not given here.
Pick one: YES for active, NO for inactive

Task item: Dear all, I need the recorded test outcome for "O=C1c2ccccc2C(=O)C1c1ccc2ccccc2n1" , thank you.
Reply: NO

Task item: What call does the record list for CC(CN1c2ccccc2Sc2ccccc21)N(C)C (stereo not given) ?
Reply: NO

Task item: Any idea what this test logged for "Cc1ccc(OP(=O)(Oc2ccc(C)cc2C)Oc2ccc(C)cc2C)c(C)c1" ?
Reply: NO

Task item: Any idea what this test logged for "CC(=O)/C=C/c1ccc2c(c1)OCO2" ?
Reply: NO

Task item: Check the results log: what was the call for "Nc1ccc(Oc2ccc(N)cc2)cc1" ?
Reply: YES

Task item: Returns: the outcome recorded for "CCN(CC)C(=S)SSC(=S)N(CC)CC" in this assay.
Reply: NO

Task item: What did this assay record as the result for CCCCC(CC)COS(=O)(=O)O (stereo not given) ?
Reply: NO

Task item: Test call, this compound: "CCC(C)(C)c1ccc(O)cc1"
Reply: NO

Task item: # lookup: test call for CCSCCC(N)C(=O)O (stereo not given)
Reply: NO

Task item: Would you mind telling me which call this test gave "CCCN(CCC)S(=O)(=O)c1ccc(C(=O)O)cc1" ?
Reply: NO

----------
Test system: CCRIS mutagenicity, Ames/micronucleus/aberration tests
Assay: CCRIS mutagenicity studies
Conditions: Test System: AMES SALMONELLA TYPHIMURIUM; Strain/Indicator: TA98; Metabolic Activation: RAT, LIVER, S-9, AROCLOR 1254; Method: STANDARD PLATE
Excerpt: The CCRIS database contains chemical records with carcinogenicity, mutagenicity, tumor promotion, and tumor inhibition test results. It was developed by the National Cancer Institute (NCI). Data are derived from studies cited in primary journals, current awareness tools, NCI reports, and other sources. Test results have been reviewed by experts in carcinogenesis and mutagenesis. CCRIS provides historical information from the years 1985 - 2011. It is no longer updated. […]
Calls of active or inactive are those of the source. How the calls were made is not given here.
METRIC: mutagenic call

Below: 5 compounds and their reported mutagenic call.
Cc1cnc2c(ccc3c2nc(N)n3C)n1; active; positive
CC1(C)[C@@H](O[C@H]2O[C@H](C(=O)O)[C@@H](O)[C@H](O)[C@H]2O[C@@H]2O[C@H](C(=O)O)[C@@H](O)[C@H](O)[C@H]2O)CC[C@]2(C)[C@H]3C(=O)C=C4[C@@H]5C[C@@](C)(C(=O)O)CC[C@]5(C)CC[C@@]4(C)[C@]3(C)CC[C@@H]12; inactive; negative
Cn1c(NO)nc2ncc(-c3ccccc3)cc21; active; positive
O[C@H]1[C@H]2O[C@H]2c2c(ccc3c4c5c(cccc5cc23)C=C4)[C@@H]1O; active; positive
OCCBr; inactive; negative

Task item: Quick one: mutagenic call of "COP(=S)(OC)Oc1ccc([N+](=O)[O-])c(C)c1" ?
Reply: inactive; negative

Task item: Fill in: mutagenic call of "O=C1c2ccccc2-c2cc3ccccc3cc21" is ___
Reply: active; positive

----------
Test system: CCRIS mutagenicity, Ames/micronucleus/aberration tests
Assay: CCRIS mutagenicity studies
Settings: Test System: AMES SALMONELLA TYPHIMURIUM; Strain/Indicator: TA1538; Metabolic Activation: NONE; Method: PREINCUBATION
The source made the active and inactive calls. No rule for the calls is given here.
# valid calls are yes (1) for active, no (0) for inactive; nothing else

# example entries with known answers
Cl; no (0)
Nc1ccc2nc3ccccc3c(N)c2c1; no (0)
OCC(O)CO; no (0)
O=C(Nc1ccc([N+](=O)[O-])cc1Cl)c1cc(Cl)ccc1O; no (0)
Nc1ccc2cc3ccccc3nc2c1; yes (1)

Task item: Dear colleague, could you share the recorded outcome for "O=C(O)C(F)(F)C(F)(F)C(F)(F)C(F)(F)C(F)(F)C(F)(F)C(F)(F)C(F)(F)C(F)(F)F" when you have a moment?
Reply: no (0)

Task item: Assay result, entry "O.O.O.O.O.O.[Cl-].[Cl-].[Ni+2]" — outcome?
Reply: no (0)

Task item: # lookup: test call for "O=C(O)c1ccccc1[N+](=O)[O-]"
Reply: yes (1)

Task item: Status in this test for CCCCCCCCCCCCCCCCCC(=O)NCCCC[C@@H](NC(=O)CC[C@@H](NC(=O)[C@H](C)NC(=O)[C@@H](C)O[C@H]1[C@H](O)[C@@H](CO)OC(O)[C@@H]1NC(C)=O)C(N)=O)C(=O)O (some centres undefined) ?
Reply: no (0)

Task item: What did this assay record as the result for "CC(=O)C(C)=O" ?
Reply: no (0)

Task item: Answer briefly: the call reported for "CC=O" in this assay.
Reply: no (0)

Task item: Record request — test call for "CC(C)CO"
Reply: no (0)

Task item: Answer briefly: the call reported for "[Cl][Mn][Cl]" in this assay.
Reply: no (0)

Task item: Hello, I am checking results. What call was entered for "COC(=O)Nc1nc2ccccc2[nH]1" ?
Reply: no (0)

----------
Test system: CCRIS mutagenicity, Ames/micronucleus/aberration tests
Assay: CCRIS mutagenicity studies
Conditions: Test System: AMES SALMONELLA TYPHIMURIUM; Strain/Indicator: TA100; Metabolic Activation: HAMSTER, LIVER, S-9, AROCLOR 1254; Method: PREINCUBATION
Active and inactive are the calls of the source. How the calls were made is not given here.
Give your call using only these classes: YES for active, NO for inactive

Here are 4 molecules together with their reported answers.
CCC1CO1 (stereo not given); YES
CC(O)c1ccccc1 (stereo not given); NO
Cc1ccc(C)cc1; NO
C[Si](C)(C)Cl; NO

Task item: GET /call?item= "Cc1cc(=O)oc2cc(O)ccc12" returns the recorded outcome of this test.
Reply: NO

----------
Tested on: CCRIS mutagenicity, Ames/micronucleus/aberration tests
Test: CCRIS mutagenicity studies
Conditions: Test System: AMES SALMONELLA TYPHIMURIUM; Strain/Indicator: TA1535; Metabolic Activation: RAT, LIVER, S-9, AROCLOR 1254; Method: STANDARD PLATE
The source made the active and inactive calls. The rule behind the calls is not given here. Where a SMILES comes first, the peptide text is derived from it. [ ]: non-standard residue; d: D form. pGlu = O=C1CC[C@@H](C(=O)O)N1; Thz = O=C(O)[C@@H]1CSCN1
METRIC: mutagenic call

CC1(C)[C@@H](O[C@H]2O[C@H](C(=O)O)[C@@H](O)[C@H](O)[C@H]2O[C@@H]2O[C@H](C(=O)O)[C@@H](O)[C@H](O)[C@H]2O)CC[C@]2(C)[C@H]3C(=O)C=C4[C@@H]5C[C@@](C)(C(=O)O)CC[C@]5(C)CC[C@@]4(C)[C@]3(C)CC[C@@H]12; inactive; negative
CC(C)CON=O; active; positive
COC(=O)Nc1nc2ccc(O)cc2[nH]1; inactive; negative
C=C(C)C(=O)OCCO; inactive; negative
OC[C@H]1O[C@@H](n2cnc3c(NC[C@H](O)COc4cccc5ccccc45)ncnc32)[C@H](O)[C@@H]1O; inactive; negative
C=C(Cl)CCl; active; positive

Pending molecule:
Task item: // query mutagenic call value for entry O=C1CC[C@@H](C(=O)N2CSC[C@H]2C(=O)O)N1 ([pGlu]-[Thz]-OH)
Reply: inactive; negative

----------
Tested on: CCRIS mutagenicity, Ames/micronucleus/aberration tests
Assay: CCRIS mutagenicity studies
Conditions: Test System: AMES SALMONELLA TYPHIMURIUM; Strain/Indicator: TA98; Metabolic Activation: NONE; Method: STANDARD PLATE
Activity calls are given as the source filed them. How the calls were made is not given here.
One label from this list, please: active, inactive

Solved entries (count: 7):
Cn1c([N+](=O)[O-])cnc1C(O)c1cc(C(C)(C)C)cc(C(C)(C)C)c1O (stereo not drawn); inactive
O=C(O)CN(CC(=O)O)CC(=O)O; inactive
CNC(=O)N(C)C(=O)ON; active
NC[C@H]1CCCN1.O=C([O-])C1(C(=O)[O-])CCC1.[Pt+2]; inactive
Nc1cc2c(O)c(N=Nc3ccc(N=Nc4ccc(S(=O)(=O)O)cc4)c4ccc(S(=O)O)cc34)c(S(=O)(=O)O)cc2cc1S(=O)(=O)O; inactive
CCOC(=O)CC1OCCc2c1[nH]c1c(CC)c(O)ccc21 (stereo not drawn); inactive
CCSCCSP(=S)(OC)OC; inactive

// next entry
Task item: Per the records of this test, what outcome belongs to "CC(=O)c1ccc(N=O)cc1" ?
Reply: active

----------
System: CCRIS mutagenicity, Ames/micronucleus/aberration tests
Assay: CCRIS mutagenicity studies
Conditions: Test System: AMES SALMONELLA TYPHIMURIUM; Strain/Indicator: TA97; Metabolic Activation: NONE; Method: STANDARD PLATE
Calls of active or inactive are those of the source. The rule behind the calls is not given here.
// one of yes (1) = active, no (0) = inactive, no free text

Examples from the recorded data:
O=c1c(O)c(-c2ccc(O)c(O)c2)oc2cc(O)cc(O)c12; yes (1)
Cc1ccc2ccc3ccc(C)cc3c2c1; no (0)
Cc1cc(C)c(N)c(C)c1N; no (0)

Now, please, on to the next molecule.
Task item: What classification did CC(=O)c1cc2c(cc1C)C(C)(C)C(C)CC2(C)C (configuration not stated) end up with in this test?
Reply: no (0)
